The reader will find reported pIC50 values listed item by item below.
- STUDY_SYSTEM: IRAK4 (Homo sapiens, UniProt Q9NWZ3)
- Construct: His-TEV-IRAK4 (1-460); His (N); TEV cleavage site (N)
- Sequence (Q9NWZ3 whole entry): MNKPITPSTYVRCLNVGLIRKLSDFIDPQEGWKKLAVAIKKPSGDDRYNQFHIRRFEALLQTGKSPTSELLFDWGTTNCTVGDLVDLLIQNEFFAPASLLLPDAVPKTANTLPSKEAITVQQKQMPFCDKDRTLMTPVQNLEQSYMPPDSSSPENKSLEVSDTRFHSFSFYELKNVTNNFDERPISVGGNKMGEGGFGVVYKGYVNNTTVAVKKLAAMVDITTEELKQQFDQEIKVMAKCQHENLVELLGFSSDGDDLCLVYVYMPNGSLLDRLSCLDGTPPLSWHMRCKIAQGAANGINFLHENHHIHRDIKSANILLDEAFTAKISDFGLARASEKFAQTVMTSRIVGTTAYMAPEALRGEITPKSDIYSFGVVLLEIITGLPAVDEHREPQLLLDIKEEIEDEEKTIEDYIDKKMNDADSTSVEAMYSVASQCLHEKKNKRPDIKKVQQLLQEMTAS
- TEST_SUMMARY: IRAK4 enzymatic assay (ADP-Glo luminescence)
- STATED_CONDITIONS: purified human recombinant His-TEV-IRAK4 (1-460), ATP 2 μM
pIC50: −log10 of the molar value.

>>> observed_result("O=C(/N=c1\\[nH]c2cc(N3CCOCC3=O)ccc2n1CCCO)c1ccc2nc[nH]c2c1")
"< 6.00"
>>> observed_result("CN(C)S(=O)(=O)c1cccc(C(=O)/N=c2\\[nH]c3cc(N4CCOCC4=O)ccc3n2CCCO)c1")
"≥ 7.00"
>>> observed_result("CS(=O)(=O)c1cccc(C(=O)/N=c2\\[nH]c3cc(N4CCOCC4=O)ccc3n2[C@H]2CC[C@@H](O)CC2)c1")
"≥ 7.00"

We now examine a further compound.
Param readout= pIC50; system= IRAK4 (Homo sapiens, UniProt Q9NWZ3); entry= O=C(/N=c1\[nH]c2cc(N3CCCOC3=O)ccc2n1C1CCC1)c1cccc(C(F)(F)F)c1 ; returns value.
≥ 7.00

* * *

- STUDY_SYSTEM: IRAK1 (Homo sapiens, UniProt P51617)
- Construct: His-TEV-IRAK1 (194-712); His (N); TEV cleavage site (N)
- Sequence (P51617 194-712): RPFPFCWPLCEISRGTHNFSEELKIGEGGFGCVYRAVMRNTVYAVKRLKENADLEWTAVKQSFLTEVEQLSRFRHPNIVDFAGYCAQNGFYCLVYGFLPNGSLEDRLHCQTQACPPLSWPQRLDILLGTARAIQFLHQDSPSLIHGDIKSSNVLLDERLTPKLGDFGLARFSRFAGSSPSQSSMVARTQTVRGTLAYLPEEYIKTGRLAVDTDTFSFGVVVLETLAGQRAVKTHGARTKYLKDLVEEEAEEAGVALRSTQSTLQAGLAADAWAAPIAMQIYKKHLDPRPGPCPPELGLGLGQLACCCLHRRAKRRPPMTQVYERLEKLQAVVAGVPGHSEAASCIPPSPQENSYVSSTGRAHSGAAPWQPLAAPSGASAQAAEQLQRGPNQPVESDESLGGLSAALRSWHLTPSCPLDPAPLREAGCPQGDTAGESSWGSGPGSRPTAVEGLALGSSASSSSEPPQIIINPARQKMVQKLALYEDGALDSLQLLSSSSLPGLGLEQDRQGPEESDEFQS
- TEST_SUMMARY: IRAK1 enzymatic assay (ADP-Glo luminescence)
- STATED_CONDITIONS: purified human recombinant His-TEV-IRAK1 (194-712)
PARAMETER: IC50

// worked examples, IC50 included
>>> observed_result("O=C(/N=c1\\[nH]c2cc(N3CCSCC3=O)ccc2n1CCCO)c1cccc(C(F)(F)F)c1")
"100 to 1000 nM"
>>> observed_result("O=C(/N=c1\\[nH]c2cc(N3CCCOC3=O)ccc2n1[C@@H]1C[C@H]1CO)c1cccc(C(F)(F)F)c1 (racemic)")
"> 1000 nM"
>>> observed_result("N#Cc1cccc(C(=O)/N=c2\\[nH]c3cc(N4CCOCC4=O)c(Br)cc3n2CCCO)c1")
"100 to 1000 nM"
>>> observed_result("O=C(/C=C1\\Nc2cc(N3CCOCC3=O)ccc2N1CCCO)c1cccc(C(F)(F)F)n1")
"100 to 1000 nM"
>>> observed_result("CS(=O)(=O)c1cccc(C(=O)/N=c2\\[nH]c3cc(N4CCOCC4=O)ccc3n2[C@H]2CC[C@H](O)CC2)c1")
"≤ 100 nM"
>>> observed_result("O=C(/N=c1\\[nH]c2cc(N3CCOCC3=O)ccc2n1[C@H]1CCCC[C@@H]1CO)c1cccc(C(F)(F)F)c1 (racemic)")
"100 to 1000 nM"

We now examine a further compound.
Param readout= IC50; system= IRAK1 (Homo sapiens, UniProt P51617); entry= N#Cc1cccc(C(=O)/C=C2\Nc3cc(N4CCOCC4=O)ccc3N2CCCO)c1 ; returns value.
100 to 1000 nM

* * *

The reader will find reported pIC50 values listed item by item below.
- STUDY_SYSTEM: IRAK1 (Homo sapiens, UniProt P51617)
- Construct: His-TEV-IRAK1 (194-712); His (N); TEV cleavage site (N)
- TEST_SUMMARY: IRAK1 enzymatic assay (ADP-Glo luminescence)
- STATED_CONDITIONS: purified human recombinant His-TEV-IRAK1 (194-712)
pIC50: −log10 of the molar value.

>>> observed_result("N#Cc1cccc(C(=O)/N=c2\\[nH]c3cc(N4CCCOC4=O)ccc3n2CC2CCCCO2)c1 (stereo not shown)")
"≥ 7.00"

Param readout= pIC50; system= IRAK1 (Homo sapiens, UniProt P51617); entry= Cn1cnn(-c2ccc3c(c2)[nH]/c(=N\C(=O)c2cccc(C(F)(F)F)c2)n3CCCO)c1=O ; returns value.
6.00 to 7.00

Param readout= pIC50; system= IRAK1 (Homo sapiens, UniProt P51617); entry= O=C(/N=c1\[nH]c2cc(N3CCCOC3=O)ccc2n1CC1(F)COC1)c1cccc(C(F)F)c1 ; returns value.
6.00 to 7.00

Param readout= pIC50; system= IRAK1 (Homo sapiens, UniProt P51617); entry= Cc1cccc(C(=O)/N=c2\[nH]c3cc(N4CCOCC4=O)ccc3n2CCCO)c1 ; returns value.
6.00 to 7.00

* * *

- STUDY_SYSTEM: IRAK1 (Homo sapiens, UniProt P51617)
- Construct: His-TEV-IRAK1 (194-712); His (N); TEV cleavage site (N)
- TEST_SUMMARY: IRAK1 enzymatic assay (ADP-Glo luminescence)
- STATED_CONDITIONS: purified human recombinant His-TEV-IRAK1 (194-712)
PARAMETER: IC50

// worked examples, IC50 included
>>> observed_result("C[C@H](CCO)n1/c(=N/C(=O)c2cccc(C#N)c2)[nH]c2cc(N3CCCOC3=O)ccc21 [Compound 42]")
"100 to 1000 nM"
>>> observed_result("C[C@H](CCO)n1/c(=N/C(=O)c2cccc(C(F)F)c2)[nH]c2cc(N3CCCOC3=O)ccc21 [Compound 44]")
"100 to 1000 nM"
>>> observed_result("O=C(/N=c1\\[nH]c2cc(N3CCOCC3=O)ccc2n1CCCO)c1cc(F)cc(C(F)(F)F)c1 [Compound 81]")
"≤ 100 nM"

Param readout= IC50; system= IRAK1 (Homo sapiens, UniProt P51617); entry= O=C(/N=c1\[nH]c2cc(N3CCCOC3=O)ccc2n1CC1(O)CCCC1)c1cccc(C(F)(F)F)c1 [Compound 162] ; returns value.
≤ 100 nM

Param readout= IC50; system= IRAK1 (Homo sapiens, UniProt P51617); entry= CCNC(=O)N1CCC(n2/c(=N/C(=O)c3cccc(C(F)F)c3)[nH]c3cc(N4CCOCC4=O)ccc32)CC1 [Compound 135] ; returns value.
≤ 100 nM

* * *

- STUDY_SYSTEM: IRAK1 (Homo sapiens, UniProt P51617)
- Construct: His-TEV-IRAK1 (194-712); His (N); TEV cleavage site (N)
- TEST_SUMMARY: IRAK1 enzymatic assay (ADP-Glo luminescence)
- STATED_CONDITIONS: purified human recombinant His-TEV-IRAK1 (194-712)
PARAMETER: IC50

// worked examples, IC50 included
>>> observed_result("O=C(/N=c1\\[nH]c2cc(N3CCOCC3=O)ccc2n1CC1(CO)CC1)c1cccc(C(F)F)c1 [Compound 14]")
"≤ 100 nM"
>>> observed_result("CC(C)(C)Cn1/c(=N/C(=O)c2cccc(C(F)(F)F)c2)[nH]c2cc(N3CCCOC3=O)ccc21 [Compound 173]")
"100 to 1000 nM"
>>> observed_result("CCC(CCO)n1/c(=N/C(=O)c2cccc(C(F)F)c2)[nH]c2cc(N3CCOCC3=O)ccc21 (racemic) [Compound 125]")
"> 1000 nM"

Request the reported IC50 associated with COc1cc2c(cc1N1CCOCC1=O)[nH]/c(=N\C(=O)c1cccc(C(F)(F)F)c1)n2CC1(CO)CC1 [Compound 53]
≤ 100 nM

* * *

The reader will find reported pIC50 values listed item by item below.
- STUDY_SYSTEM: IRAK1 (Homo sapiens, UniProt P51617)
- Construct: His-TEV-IRAK1 (194-712); His (N); TEV cleavage site (N)
- TEST_SUMMARY: IRAK1 enzymatic assay (ADP-Glo luminescence)
- STATED_CONDITIONS: purified human recombinant His-TEV-IRAK1 (194-712)
pIC50: −log10 of the molar value. Structures can show the parent of a compound that is named as a salt.

// worked examples, pIC50 included
>>> observed_result("O=C(/N=c1\\[nH]c2cc(N3CCOCC3=O)ccc2n1CCCO)c1cccc(OC(F)F)c1")
"6.00 to 7.00"
>>> observed_result("O=C(O)CCn1/c(=N/C(=O)c2cccc(C(F)(F)F)c2)[nH]c2cc(N3CCOCC3=O)ccc21")
"< 6.00"
>>> observed_result("CS(=O)(=O)c1cccc(C(=O)/N=c2\\[nH]c3cc(N4CCOCC4=O)ccc3n2CC2(CO)CC2)c1")
"≥ 7.00"
>>> observed_result("N#Cc1cccc(C(=O)/N=c2\\[nH]c3cc(N4CCOC4=O)ccc3n2CCCO)c1")
"6.00 to 7.00"
>>> observed_result("O=C(/C=C1\\Nc2cc(N3CCOCC3=O)ccc2N1CCCO)c1cccc(Br)n1")
"6.00 to 7.00"

Request the reported pIC50 associated with NS(=O)(=O)c1cccc(C(=O)/N=c2\[nH]c3cc(N4CCOCC4=O)ccc3n2CCCO)c1
≥ 7.00

Request the reported pIC50 associated with O=C(/N=c1\[nH]c2cc(N3CCOCC3=O)ccc2n1C1CCNCC1)c1cccc(C(F)F)c1 [Compound 129, hydrochloride]
6.00 to 7.00

Request the reported pIC50 associated with CC(=O)N1CCN(c2ccc3c(c2)[nH]/c(=N\C(=O)c2cccc(C(F)F)c2)n3CCCO)C(=O)C1
≥ 7.00
